Data origin: the supplement of paper PMC7125110

B1: glmS ribozyme (parent)
chain: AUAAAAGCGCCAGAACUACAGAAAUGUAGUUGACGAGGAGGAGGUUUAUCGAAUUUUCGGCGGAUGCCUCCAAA

Variants of: B1
Experiment: kcat; higher = faster cleavage; RNA array
Settings: with glucosamine-6-phosphate
This sample holds only a part of the variants without activity.
Reported kcat values follow for various variants

Task: Entry G38A C61A : reported kcat = ?
Output: < 1e-05 s⁻¹
